# Test system: LXFL 529
# Test Summary: NCI tumour cell line growth inhibition, 48 h
Active and inactive are the calls of the source. Rule as the data show it: active = GI50 up to about 1.1 µM and inactive = higher.
Labels: yes (1) for active, no (0) for inactive

INSERT INTO assay_data (molecule, label_value) VALUES
  ('c1ccc(OCCSCCCCCCCCCCSCCOc2ccccc2)cc1', 'no (0)'),
  ('COc1ccccc1NC(=O)C1=C(C)NC(C)=C(C(=O)Nc2ccccc2OC)C1c1ccccc1F', 'no (0)'),
  ('O=C1/C(=C/c2ccc(Cl)c(Cl)c2)CNC/C1=C\c1ccc(Cl)c(Cl)c1', 'no (0)'),
  ('COc1cc2c(c(OC)c1OC)-c1ccc(OC)c(=O)cc1C(NC(=O)COc1ccccc1)CC2 (configuration not stated)', 'yes (1)'),
  ('CC1(O)C=CC(=O)C=C1', 'no (0)'),
  ('Cc1c(C(=O)/C=C/c2ccccc2)[n+]([O-])c2ccccc2[n+]1[O-]', 'no (0)'),
  ('N#CC1=C(Cl)NC(Cl)=C(C#N)C1c1ccc(Cl)cc1', 'no (0)');

====

# System: UO-31
# Test Summary: NCI tumour cell line growth inhibition, 48 h
The source made the active and inactive calls. Cut-off read from the data, not from the text of the source: active = GI50 up to about 1.1 µM and inactive = higher.
Labels: active, inactive

INSERT INTO measurements (molecule, test_system, label_value) VALUES
  ('Cc1cc(C)c(S(=O)(=O)N(CCCCCCN)OCCCN)c(C)c1', 'UO-31', 'inactive'),
  ('O=C(CC1(O)C(=O)Nc2c(Cl)cc(Cl)cc21)c1ccco1 (centres undefined)', 'UO-31', 'inactive'),
  ('Cc1cn2c(/C=N/NC(=N)N)c(-c3ccc(Cl)c([N+](=O)[O-])c3)nc2s1', 'UO-31', 'inactive'),
  ('O=C(NNC(=O)c1ccccc1O)c1ccc(O)cc1', 'UO-31', 'inactive'),
  ('COc1ccc(-c2cc(O)c3cc4c(cc3n2)OCO4)c(OC)c1', 'UO-31', 'inactive'),
  ('CC1(C)CC(O)CC(C)(C)N1O [TEMPOL HYDROXYLAMINE]', 'UO-31', 'inactive'),
  ('Oc1c(C2=NNC(c3ccc(Cl)cc3Cl)C2)ccc2ccccc12 (centres undefined)', 'UO-31', 'inactive'),
  ('CCOC(=O)c1[nH]c2ccccc2c1C(=O)C[C@H](NC(=O)C(F)(F)F)C(=O)OC', 'UO-31', 'inactive'),
  ('C/C(=N/NC(=O)c1ccccc1S(N)(=O)=O)C(CN1CCCCC1)C(C1=C(O)C2C=CC=CC2OC1=O)c1ccccc1 (centres undefined)', 'UO-31', 'inactive'),
  ('O=C(NP(=O)(N1CC1)N1CC1)c1cc(I)ccc1I [DIIODBENZOTEPH]', 'UO-31', 'inactive'),
  ('CC(=O)C1(O)Cc2c(O)c3c(c(O)c2C(OC2CC(N)C(O)C(C)O2)C1)C(=O)c1ccccc1C3=O (centres undefined)', 'UO-31', 'active'),
  ('CN(C)CCNC(=O)c1cccc2c1nc(-c1cccnc1)c1ccccc12', 'UO-31', 'inactive'),
  ('S=C(N/N=C/c1ccccn1)N1CCCCCC1', 'UO-31', 'active'),
  ('Cn1c2ccccc2c2ccc3c(c21)C(=O)C(c1ccccc1)=CC3=O', 'UO-31', 'inactive'),
  ('COc1ccc(-n2c(-c3ccccc3)cc(-c3cccs3)c2-c2cccs2)cc1', 'UO-31', 'inactive'),
  ('Nc1ccc(-c2nc3cc(F)ccc3s2)cc1', 'UO-31', 'inactive'),
  ('COc1cc(/C=C/C(=O)CC(=O)/C=C/c2ccc(O)c(OC)c2)ccc1O [CURCUMIN]', 'UO-31', 'inactive'),
  ('COc1cc([C@@H]2c3cc4c(cc3[C@@H](NCCCN(C)C)[C@H]3COC(=O)[C@H]23)OCO4)cc(OC)c1O', 'UO-31', 'active'),
  ('COc1nc(C(=O)NNC(=O)c2nc(OC)c3ccccc3c2-c2ccccc2)c(-c2ccccc2)c2ccccc12', 'UO-31', 'inactive');
